The values you see were collected from the supplement of paper PMC12667976.

B1: library; numbered along this chain (parent)
chain: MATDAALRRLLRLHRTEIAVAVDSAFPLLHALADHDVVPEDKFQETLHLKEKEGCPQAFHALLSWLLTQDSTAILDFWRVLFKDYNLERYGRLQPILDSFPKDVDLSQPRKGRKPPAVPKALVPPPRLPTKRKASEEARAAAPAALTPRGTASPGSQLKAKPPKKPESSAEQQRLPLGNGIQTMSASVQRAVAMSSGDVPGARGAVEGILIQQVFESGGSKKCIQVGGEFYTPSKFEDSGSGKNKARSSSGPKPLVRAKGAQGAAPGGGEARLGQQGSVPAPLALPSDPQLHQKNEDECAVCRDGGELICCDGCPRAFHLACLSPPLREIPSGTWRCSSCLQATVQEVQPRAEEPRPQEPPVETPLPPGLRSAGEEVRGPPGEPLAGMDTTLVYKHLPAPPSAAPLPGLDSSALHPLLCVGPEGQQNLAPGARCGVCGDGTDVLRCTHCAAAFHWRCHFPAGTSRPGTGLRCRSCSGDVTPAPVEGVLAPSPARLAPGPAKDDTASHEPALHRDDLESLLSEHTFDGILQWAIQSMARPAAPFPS

Variants of: B1
Assay: AIRE transcriptional activation functional score (insulin promoter-GFP; nonsense median 0, synonymous median 1) (normalised score); higher = higher AIRE activity (more reporter activation)
Settings: with insulin promoter-GFP reporter in HEK293
Each record gets a class by AIRE transcriptional activation functional score: Low (below 0.6), Medium (0.6 to below 1), High (1 or more)

variant_notation	classification
M184A	Low
D515W	Low
H415R	Medium
S506D	High
S169M	Low
R272M	High
L488H	Low
A399T	Medium
C340A	High
A121G	High
P331Q	Low
S220F	Low
G242V	High
P326W	High
G438K	High
K133G	Low
E376A	Medium
D442R	Low
G268C	High
A404D	Medium
R89S	High
H523F	Low
V104H	Low
G477K	High
I330Q	Low
A117H	High
S99H	Low
R303Y	Medium
R190E	Medium
L495F	High
Q293I	Low
P286G	High
H415Y	High
L146K	Medium
S332F	High
P357K	Medium
E51W	Low
R494V	High
V348M	Low
V362H	Medium
Q530A	Medium
A284M	Medium
S506H	High
L519G	Low
G313T	Medium
G421M	Medium
Q342C	High
G178L	High
A170W	High
S521F	Medium
L62N	Low
E45H	Low
T463N	Medium
Q426P	High
P407T	High
V199E	Medium
A399L	Low
Q225T	Medium
R110E	High
S411I	High
L75E	Low
T16S	Low
L370I	High
S185M	Low
P497H	Medium
L406I	High
G440S	High
V199G	High
G408L	Low
P355H	High
A191F	Low
C340N	High
G180N	High
P367N	Medium
E216W	Low
A432D	Medium
P361S	High
P129L	Low
D526T	Low
P422F	Medium
C314G	Medium
Q189D	Medium
R538T	Medium
A432I	Low
P166W	Low
V20N	Low
R471P	Medium
